# Test system: SW-620 colon
# PROTOCOL TEXT: NCI-60 one-dose screen, 48 h
# SETTINGS: 10 µM unless noted
The panel holds about 83,000 compounds, 20% with a hit somewhere; the sample as a whole holds those more often. Active and inactive are the calls of the source. How the source made its calls: active means growth percent below 10; inactive means the rest.
Valid outcomes are listed here; reply with one: True for active, False for inactive

For orientation, consider the following solved cases.
Exercise: What did this assay record as the result for `O=C(/C=C/c1cc(CN2CCOCC2)c(O)c2ncccc12)c1cc(CN2CCOCC2)c(O)c2ncccc12` ?
Solution: False

Exercise: Give the logged outcome of this assay for the following compound: `c1ccc(CCNc2ncnc3[nH]ncc23)cc1`
Solution: False

Exercise: For `COc1ccc(/C=C\c2cc(OC)c(OC)c(OC)c2)cc1OCC(=O)Nc1ccc2nc(C)sc2c1` , what call appears in the results of this test?
Solution: False

Exercise: What call does the record list for CN1C(=O)C2(SCC(C(=O)NCc3ccccc3)N2C(=O)C2CCCCC2)c2ccccc21 (stereo unspecified) ?
Solution: False

Please look at the following compound next.
Exercise: Tell me the recorded outcome of this test for `Cc1cc(N2CCN(c3ccnc4cc(Cl)ccc34)CC2)nc(N2CCOCC2)n1` .
Solution: False
